tested-target: human ether-à-go-go-related gene (hERG) potassium channel (human, UniProt Q12809)
Sequence (Q12809 whole entry, looked up): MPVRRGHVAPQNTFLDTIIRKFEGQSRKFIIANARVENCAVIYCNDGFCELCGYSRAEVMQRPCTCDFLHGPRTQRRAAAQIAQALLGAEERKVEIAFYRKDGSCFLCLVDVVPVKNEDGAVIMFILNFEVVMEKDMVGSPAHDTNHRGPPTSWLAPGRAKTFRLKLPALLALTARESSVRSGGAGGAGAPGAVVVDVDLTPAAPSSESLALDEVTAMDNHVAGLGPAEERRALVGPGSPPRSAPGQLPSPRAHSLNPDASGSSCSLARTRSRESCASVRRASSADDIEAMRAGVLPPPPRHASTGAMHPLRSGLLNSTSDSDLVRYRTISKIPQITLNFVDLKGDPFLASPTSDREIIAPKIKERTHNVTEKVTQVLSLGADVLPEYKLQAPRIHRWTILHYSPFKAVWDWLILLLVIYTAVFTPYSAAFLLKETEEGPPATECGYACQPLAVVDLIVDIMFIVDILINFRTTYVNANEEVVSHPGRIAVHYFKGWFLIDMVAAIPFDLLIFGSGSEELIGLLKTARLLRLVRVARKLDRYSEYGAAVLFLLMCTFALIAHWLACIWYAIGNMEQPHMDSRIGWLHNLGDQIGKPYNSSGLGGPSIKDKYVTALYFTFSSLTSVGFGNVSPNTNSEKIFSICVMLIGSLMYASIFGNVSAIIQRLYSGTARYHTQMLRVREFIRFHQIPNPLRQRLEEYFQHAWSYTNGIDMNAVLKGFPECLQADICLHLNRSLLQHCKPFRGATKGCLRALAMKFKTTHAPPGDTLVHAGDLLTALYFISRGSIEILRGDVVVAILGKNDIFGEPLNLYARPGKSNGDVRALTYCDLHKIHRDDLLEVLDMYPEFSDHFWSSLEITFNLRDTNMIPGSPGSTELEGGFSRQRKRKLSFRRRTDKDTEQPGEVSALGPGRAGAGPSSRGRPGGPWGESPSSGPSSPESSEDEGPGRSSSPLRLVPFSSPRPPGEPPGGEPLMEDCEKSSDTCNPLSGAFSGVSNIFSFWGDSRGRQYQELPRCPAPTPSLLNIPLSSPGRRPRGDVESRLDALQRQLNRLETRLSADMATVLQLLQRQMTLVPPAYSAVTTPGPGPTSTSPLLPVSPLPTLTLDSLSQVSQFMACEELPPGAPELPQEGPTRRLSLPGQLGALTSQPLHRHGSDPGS
measurement-description: primary screen, population patch clamp on CHO cells stably expressing hERG; higher = less effect of the substance
Among all 310,000 compounds or so, about 14,000 (4.5%) showed an effect of 50% or more. The effect is printed as a negative number. The sample holds strong results, similar compounds and a random draw of the others, so the mix is not that of the screen.
hERG current change (%, negative = inhibition) at 10uM reference

Here are 8 compounds together with their reported answers.
- O=C(CCCc1nc(-c2ccc(Cl)cc2)no1)Nc1cccnc1: -24.6%
- O=C(CCN1C(=O)[C@@H]2Cc3ccccc3CN2C1=O)N[C@@H](Cc1ccccc1)C(=O)O: 8.75%
- COc1ccc(CN(CC2CCC(C(=O)O)CC2)C(=S)Nc2cc(C)cc(C)c2)cc1 (stereo not drawn): 19.6%
- CCN1CCN(C(=O)c2nn(-c3ccc(OC)cc3)c(=O)c3c2c2ccccc2n3C)CC1: -4.67%
- O=C1c2ccccc2C(=O)c2c1cccc2N1CCN(C/C=C/c2ccccc2)CC1: -7.23%
- CCOC(=O)N1CCN(c2ccc(S(=O)(=O)N(Cc3ccccc3)Cc3ccccc3)cn2)CC1: -4.41%
- O=C1c2ccccc2C(=O)c2c1cccc2N1CCN(CCO)CC1: -69.7%
- O=C1c2ccccc2-c2onc3c(N4CCN(CCO)CC4)cc(N4CCN(C(=O)c5ccco5)CC4)c1c23: -22.1%

Qu. Notebook entry, human ether-à-go-go-related gene (hERG) potassium channel (human, UniProt Q12809) assay: hERG current change (%, negative = inhibition) at 10uM of "CCOc1ccc(C(=O)Nc2ccccc2CC)cc1[N+](=O)[O-]" = ?
Ans. -21.9%

----------
Reported hERG current change (%, negative = inhibition) at 10uM values follow for various compounds
tested-target: human ether-à-go-go-related gene (hERG) potassium channel (human)
measurement-description: primary screen, population patch clamp on CHO cells stably expressing hERG; higher = less effect of the substance
Among all 310,000 compounds or so, about 14,000 (4.5%) showed an effect of 50% or more. Effects have a minus sign here. What follows is part of a selection rich in strong results, with near analogues and random picks from the rest.
# output: bare number, implied unit %

• CCOC(=O)C1CCCN(Cc2nc(Cc3ccccc3Cl)no2)C1 (centres unmarked) = -14.1

Qu. What value of hERG current change (%, negative = inhibition) at 10uM has been reported for the following compound? "CCOC(=O)C1CCN(Cc2nc(-c3ccc(OC)c(OC)c3)no2)CC1"
Ans. 2.83

Qu. What value of hERG current change (%, negative = inhibition) at 10uM has been recorded for this entry: CCOC(=O)C1CCCN(Cc2nc(Cc3cccc(F)c3)no2)C1 (centres unmarked)
Ans. -6.6

Qu. hERG current change (%, negative = inhibition) at 10uM for CCOC(=O)C1CCCN(C2CCN(Cc3nc(-c4ccccc4)no3)CC2)C1 (centres unmarked) ?
Ans. -56.5

Qu. Could you share which hERG current change (%, negative = inhibition) at 10uM value was measured for "CCOC(=O)N1CCN(Cc2nc(-c3ccccc3)no2)CC1" ?
Ans. 2

----------
tested-target: human ether-à-go-go-related gene (hERG) potassium channel (human, UniProt Q12809);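 also: peak tail current of the secondary pulse compared with the same well before compound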
measurement-description: primary screen, population patch clamp on CHO cells stably expressing hERG; higher = less effect of the substance
About 14,000 (4.5%) of roughly 310,000 compounds showed an effect of 50% or more. The effect is printed as a negative number. The sample as a whole holds a higher share of strong results than the screen did.
measurement-name: hERG current change (%, negative = inhibition) at 10uM (%)
Hi! Could you send only the number? It should be in %, unit omitted.

Observe how each entry below is paired with its result.
• CCOc1nc(C)ccc1-c1noc(-c2ccccc2OC)n1 = 12.7
• Cc1ccc2sc(N(CCN(C)C)C(=O)/C=C/c3cccs3)nc2c1C.Cl = 11.8

Qu. Hello, I am looking for reported hERG current change (%, negative = inhibition) at 10uM with human ether-à-go-go-related gene (hERG) potassium channel (human, UniProt Q12809) for CCCCCNC(=O)C(C)Sc1ccc(Cl)cc1 (centres unmarked) . Could you help?
Ans. 10.9

Qu. Notebook: pull reported hERG current change (%, negative = inhibition) at 10uM for human ether-à-go-go-related gene (hERG) potassium channel (human, UniProt Q12809), entry "CN(CC(=O)Nc1ccc(Cl)cc1)C(=O)CNC(=O)Cc1cccc2ccccc12"
Ans. 20.1

Qu. Form field: hERG current change (%, negative = inhibition) at 10uM recorded for "NC(=O)c1nn(-c2ccccc2)nc1NC(=O)CSc1nnnn1-c1ccc(Cl)cc1" with human ether-à-go-go-related gene (hERG) potassium channel (human, UniProt Q12809) (enter value)
Ans. -53.7

Qu. Please tell me: hERG current change (%, negative = inhibition) at 10uM of "CN(C)CCCn1c(=O)n(CCc2ccccc2)c(=O)c2c3c(sc21)CCCCC3" , system human ether-à-go-go-related gene (hERG) potassium channel (human, UniProt Q12809)?;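 also: peak tail current of the secondary pulse compared with the same well before compound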
Ans. -70.4

Qu. What hERG current change (%, negative = inhibition) at 10uM appears in the records for this compound with human ether-à-go-go-related gene (hERG) potassium channel (human, UniProt Q12809)? CCOc1ccc(C2/C(=C(\O)c3ccc4c(c3)OCCO4)C(=O)C(=O)N2CCCN2CCOCC2)cc1OC (centres unmarked)
Ans. 3.69

Qu. Hi! What's the reported hERG current change (%, negative = inhibition) at 10uM for COCCOCC(O)CN1CCN(c2ccccc2)CC1.O=C(O)C(=O)O (centres unmarked) on human ether-à-go-go-related gene (hERG) potassium channel (human, UniProt Q12809)?
Ans. -3.37

Qu. Report hERG current change (%, negative = inhibition) at 10uM for "O=C(NCc1ccccn1)c1ccc(=O)oc1" tested on human ether-à-go-go-related gene (hERG) potassium channel (human, UniProt Q12809).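 Also: peak tail current of the secondary pulse compared with the same well before compound.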
Ans. 1.42

Qu. Return hERG current change (%, negative = inhibition) at 10uM measured with human ether-à-go-go-related gene (hERG) potassium channel (human, UniProt Q12809) given this compound: "CC(C)Oc1cccc(C(=O)NC(=S)Nc2ccccc2)c1"
Ans. -7.26

Qu. Give recorded hERG current change (%, negative = inhibition) at 10uM with human ether-à-go-go-related gene (hERG) potassium channel (human, UniProt Q12809) for the following compound: CCN(CC)CC(O)Cn1c(C)c(-c2ccccc2)c2cc([N+](=O)[O-])ccc21.Cl (centres unmarked)
Ans. -65.3

Qu. Form field: hERG current change (%, negative = inhibition) at 10uM recorded for "NC(=O)c1ccc(-n2nnnc2SCC(=O)Nc2ccccc2)cc1" with human ether-à-go-go-related gene (hERG) potassium channel (human, UniProt Q12809) (enter value)
Ans. 14.3

Qu. Lab note: need hERG current change (%, negative = inhibition) at 10uM with human ether-à-go-go-related gene (hERG) potassium channel (human, UniProt Q12809) for entry CCCN1Cc2cccc(C(=O)NC(CC(=O)OCC)c3ccc(OC(C)C)cc3)c2C1=O (centres unmarked) , please look it up.
Ans. -37.6

----------
tested-target: human ether-à-go-go-related gene (hERG) potassium channel (human, UniProt Q12809);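 also: peak tail current of the secondary pulse compared with the same well before compound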
measurement-description: primary screen, population patch clamp on CHO cells stably expressing hERG; higher = less effect of the substance
The campaign covered roughly 310,000 compounds. About 14,000 (4.5%) showed an effect of 50% or more. The effect is printed as a negative number. For the sample, strong results were picked, then their nearest neighbours and some compounds at random.
measurement-name: hERG current change (%, negative = inhibition) at 10uM (%)
API: value field is a number in %; no unit string.

Qu. Endpoint output: hERG current change (%, negative = inhibition) at 10uM of O=C(Nc1nnc(C2CC2)s1)C1=NN(C2CCS(=O)(=O)C2)C(=O)CC1 (stereo not shown) . Value?
Ans. 0.219

Qu. Reported hERG current change (%, negative = inhibition) at 10uM for "O=C(CSc1ccc(Cl)cc1Cl)N1CCC(c2nc3ccccc3s2)CC1" : what is it?
Ans. -14.5

Qu. What value of hERG current change (%, negative = inhibition) at 10uM has been recorded for this entry: "O=C(CSc1ccccc1Cl)N1CCC(c2nc3ccccc3s2)CC1"
Ans. -7.4

Qu. // lookup hERG current change (%, negative = inhibition) at 10uM for "O=C(CCl)Nc1cc(S(=O)(=O)N2CCCCCC2)ccc1Cl"
Ans. -22.9

Qu. Item under review: "O=C(CSc1ccc(F)cc1)N1CCC(c2nc3ccccc3s2)CC1" . Reported hERG current change (%, negative = inhibition) at 10uM?
Ans. -67.1

Qu. If you can, please state the reported hERG current change (%, negative = inhibition) at 10uM value of "O=C(Cc1cccs1)Nc1ccc(S(=O)(=O)N2CCCCC2)cc1" .
Ans. 5.37

Qu. For the compound shown here, "CCOC(=O)c1nc(C)nc(Sc2n[nH]c(-c3cc(C(F)(F)F)cc(C(F)(F)F)c3)n2)c1C" , give the reported hERG current change (%, negative = inhibition) at 10uM.
Ans. -19.5

Qu. Need hERG current change (%, negative = inhibition) at 10uM of "CCNC(=O)N1CCC(c2nc3ccccc3s2)CC1" , thanks.
Ans. 10.3

Qu. Requested read-out: hERG current change (%, negative = inhibition) at 10uM. Entry: "O=C(CSc1c(Cl)cccc1Cl)N1CCC(c2nc3ccccc3s2)CC1"
Ans. -0.729

Qu. I'd like to know its hERG current change (%, negative = inhibition) at 10uM. The compound in question is "COc1ccc(/C=C(\C#N)C(=O)NCc2ccccc2)cc1"
Ans. 19.4
